tested on: OVCAR-4 ovarian; test: NCI tumour cell line growth inhibition, 48 h
Quick reference: GI50 of the listed items.

INSERT INTO results (compound, measurement) VALUES
  ('COc1ccc2c(c1)N(CCO)C1=C(C(=O)OC1)C2c1ccc(OC)c(OC)c1 (stereo not given)', '4.77 µM'),
  ('CCN1C(=O)N(CC)C2C1NN=c1s/c(=C\c3ccc(OC)cc3)c(=O)n12 (stereo not given)', '0.614 µM'),
  ('COC(=O)[C@]12CC[C@@H](C)[C@H](C)[C@@H]1C1=CC[C@@H]3[C@@]4(C)CC(=O)[C@H](O)[C@@](C)(CO)[C@@H]4C(=O)C[C@@]3(C)[C@]1(C)CC2', '11 µM'),
  ('Cc1cc2c(cc1Cl)SC(C(=O)c1ccc(Cl)c(Cl)c1)NS2(=O)=O (stereo not given)', '27.1 µM'),
  ('N=C1/C(=C2\Nc3ccccc3S2)CC(=O)N1c1ccc(SC(F)F)cc1', '0.969 µM'),
  ('CCCc1n(Cc2ccc3ccccc3n2)cc[n+]1Cc1ccc2ccccc2n1', '0.445 µM'),
  ('CC1(O)COCCCCOc2c(CN)cccc2NC(=O)c2nc(cnc2N)-c2ccc(cc2)S(=O)(=O)C(C)(C)C1 (stereo not given)', '1.29 µM'),
  ('C#Cc1ccc(-n2c(/C=C/c3ccc4ccccc4c3)nc3ncccc3c2=O)cc1', '1.95 µM');

Exam item: Please look up its GI50: O=C(Nc1ccccc1)Nc1ccc(Cl)c(Cl)c1
Marked response: 3.34 µM

Exam item: Form field: reported GI50 of COc1ccc2c(c1)C(=O)c1c-2c(N2CCN(C(=O)CCNCCNCCO)CC2)nc2ccccc12
Marked response: 21.2 µM

====

system: PC-3 prostate; experiment: NCI tumour cell line growth inhibition, 48 h
The entries below come with measured GI50 values attached.

Check out these entries, answers already filled in.
INSERT INTO results (molecule, measurement) VALUES
  ('CCOC(=O)c1cc(-c2ccccc2)[nH]c1N/N=C/c1c(Cl)cccc1Cl', '502 nM'),
  ('COC(=O)[C@]12CC[C@@H](C)[C@H](C)[C@@H]1C1=CC[C@@H]3[C@@]4(C)CC(=O)[C@H](O)[C@@](C)(CO)[C@@H]4C(=O)C[C@@]3(C)[C@]1(C)CC2', '931 nM'),
  ('COC1=CC2CCN3Cc4cc5c(cc4C(C1O)C23)OCC5 (centres undefined)', '2670 nM'),
  ('CC1(O)COCCCCOc2c(CN)cccc2NC(=O)c2nc(cnc2N)-c2ccc(cc2)S(=O)(=O)C(C)(C)C1 (centres undefined)', '1180 nM'),
  ('N=C1/C(=C2\Nc3ccccc3S2)CC(=O)N1c1ccc(SC(F)F)cc1', '3550 nM');

Now for the molecule whose GI50 we want.
Exam item: Give its GI50 value. Item: CC/C(=N/N=C(N)N)c1ccc(NC(=O)Nc2ccc(/C(CC)=N/N=C(N)N)cc2)cc1
Marked response: 6270 nM

====

system: 786-0 renal; experiment: NCI tumour cell line growth inhibition, 48 h
# GI50 per record follows

Known GI50 results, listed for orientation:
INSERT INTO measurements (chemicalstring, assayreadout, measurement) VALUES
  ('CCOC(=O)c1cc(-c2ccccc2)[nH]c1N/N=C/c1c(Cl)cccc1Cl', 'GI50', '1390 nM'),
  ('COc1ccc(/C=C2/CN(CCC#N)C/C(=C\c3ccc(OC)cc3)C2=O)cc1', 'GI50', '1990 nM'),
  ('O=C(c1ccco1)c1c(C(F)(F)F)n([O-])c2ccc(F)cc2[n+]1=O', 'GI50', '1270 nM'),
  ('CC[C@@]1(O)C(=O)NCc2c1cc1n(c2=O)Cc2cc3c(NC(C)=O)cccc3nc2-1', 'GI50', '> 100000 nM');

Exam item: Dear colleague, I am looking for the recorded GI50 of the following molecule: N=C1C(c2nc3ccccc3s2)=C(O)CN1c1cc(Cl)cc(Cl)c1
Marked response: 88700 nM
